- assay_comment: Cytotoxicity against mouse peritoneal macrophages after 24 hrs by MTT assay
- Format: cell-based, Peritoneal macrophage cell
Under this convention, met denotes CC50 at 24 h strictly below 300 µM and not met denotes CC50 at 24 h at or above 300 µM.

Please review the following examples before continuing.
molecule	class_assignment
Cl.N=C(N)c1ccc(N2CCN(c3nnc(-c4ccc([N+](=O)[O-])o4)s3)CC2)cc1	not met
Cl.N=C(NCc1ccccc1)c1ccc(N2CCN(c3nnc(-c4ccc([N+](=O)[O-])o4)s3)CC2)cc1	not met
N#Cc1ccc(N2CCN(c3nnc(-c4ccc([N+](=O)[O-])o4)s3)CC2)cc1	met
CCCNC(=N)c1ccc(N2CCN(c3nnc(-c4ccc([N+](=O)[O-])o4)s3)CC2)cc1.Cl	not met
Cl.N=C(c1ccc(N2CCN(c3nnc(-c4ccc([N+](=O)[O-])o4)s3)CC2)cc1)N1CCOCC1	met

Strictly below 300 µM in CC50 at 24 h? COc1ccc(CNC(=N)c2ccc(N3CCN(c4nnc(-c5ccc([N+](=O)[O-])o5)s4)CC3)cc2)cc1.Cl
met

Strictly below 300 µM in CC50 at 24 h? CNC(=N)c1ccc(N2CCN(c3nnc(-c4ccc([N+](=O)[O-])o4)s3)CC2)cc1.Cl
met

Strictly below 300 µM in CC50 at 24 h? CCC(C)NC(=N)c1ccc(N2CCN(c3nnc(-c4ccc([N+](=O)[O-])o4)s3)CC2)cc1.Cl (stereo not drawn)
not met
